- targetUnderTest: Lysine-specific demethylase 4A (Homo sapiens) (UniProt O75164)
- Sequence (O75164 whole entry, looked up, the tested form may be a part): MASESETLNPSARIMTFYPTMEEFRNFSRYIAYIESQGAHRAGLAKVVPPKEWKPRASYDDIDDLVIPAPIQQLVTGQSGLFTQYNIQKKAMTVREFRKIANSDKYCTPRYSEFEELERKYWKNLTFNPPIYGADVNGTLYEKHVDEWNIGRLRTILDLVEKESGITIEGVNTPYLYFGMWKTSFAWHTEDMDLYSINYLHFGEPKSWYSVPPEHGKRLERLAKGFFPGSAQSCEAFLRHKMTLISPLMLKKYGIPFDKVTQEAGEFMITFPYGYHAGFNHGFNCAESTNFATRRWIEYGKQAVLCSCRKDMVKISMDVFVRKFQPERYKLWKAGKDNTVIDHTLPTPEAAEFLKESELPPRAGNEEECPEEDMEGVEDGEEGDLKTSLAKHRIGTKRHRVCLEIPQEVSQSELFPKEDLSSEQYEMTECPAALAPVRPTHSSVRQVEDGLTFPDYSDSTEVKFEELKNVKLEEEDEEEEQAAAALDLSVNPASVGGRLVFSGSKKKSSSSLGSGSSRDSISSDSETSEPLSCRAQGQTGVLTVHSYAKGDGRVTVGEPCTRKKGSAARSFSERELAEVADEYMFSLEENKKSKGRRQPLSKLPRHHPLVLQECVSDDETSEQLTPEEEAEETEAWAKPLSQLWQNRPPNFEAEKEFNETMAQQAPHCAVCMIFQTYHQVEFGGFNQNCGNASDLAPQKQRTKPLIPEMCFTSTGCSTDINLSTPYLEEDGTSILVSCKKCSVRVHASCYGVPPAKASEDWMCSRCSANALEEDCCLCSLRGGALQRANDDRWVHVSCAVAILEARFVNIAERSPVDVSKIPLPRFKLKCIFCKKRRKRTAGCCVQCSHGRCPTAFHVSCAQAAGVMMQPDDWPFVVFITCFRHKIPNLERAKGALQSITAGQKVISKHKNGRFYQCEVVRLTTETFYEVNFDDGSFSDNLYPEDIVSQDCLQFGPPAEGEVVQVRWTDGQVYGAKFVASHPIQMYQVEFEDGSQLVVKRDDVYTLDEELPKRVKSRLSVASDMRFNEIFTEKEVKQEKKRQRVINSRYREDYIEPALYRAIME
- assaySummary: qHTS Assay for Inhibitors of JMJD2A-Tudor Domain; further: nearly all actives have a fitted effect of over 50% in size
- experimentalConditions: AlphaScreen JMJD2A-Tudor / H3K4me3 peptide binding; series mostly up to 114 µM
The whole screen tested about 390,000 compounds, of which about 17,000 (4.4%) were called active. Roughly 8% stayed inconclusive and do not appear here. The call rests on the fitted dose curve; in most records, active means well fitted inhibition curve with a large enough effect; inconclusive means small, poorly fitted or top-dose-only effect; inactive means no such curve, though single readings can be large or run the other way. The sample holds actives, similar compounds and a random draw of the others, so the mix is not that of the screen.
Reply using exactly one outcome from active, inactive

Any idea what this test logged for `Cc1ccc(Cl)cc1NC(=O)CSc1nc2ccccc2nc1Cc1ccccc1` ? inactive

Hey, what did the test say about `Cc1cc2nc(C)n(CCCNC(=O)Nc3ccccc3)c2cc1C` ? inactive

Could you please tell me the result logged for `Cc1c(Cl)cccc1NC(=O)N1CCN(C(=O)c2nsc3ccccc23)CC1` in this assay? inactive

Answer briefly: the call reported for `Cn1c(Nc2ccccc2)cc(=O)n(C)c1=O` in this assay. inactive

How did this test come out for CCCc1nn2c(=O)cc(COC(=O)c3ccc(NC(=O)C(C)Oc4ccccc4)cc3)nc2s1 (stereo unspecified) ? inactive

Outcome? `Cc1cc(=O)n(C)c(=O)n1CCCNc1ccccc1` active

---

- targetUnderTest: Lysine-specific demethylase 4A (Homo sapiens) (UniProt O75164)
- assaySummary: qHTS Assay for Inhibitors of JMJD2A-Tudor Domain; further: nearly all actives have a fitted effect of over 50% in size
- experimentalConditions: AlphaScreen JMJD2A-Tudor / H3K4me3 peptide binding; series mostly up to 114 µM
Hit rate of the full screen: of about 390,000 compounds, about 17,000 (4.4%) were called active. Roughly 8% stayed inconclusive and do not appear here. The call rests on the fitted dose curve; in most records, active means well fitted inhibition curve with a large enough effect; inconclusive means small, poorly fitted or top-dose-only effect; inactive means no such curve, though single readings can be large or run the other way. The list comes from a sample in which actives are over-represented; it also holds close analogues and randomly drawn compounds.
Hi there, use one of these labels in your reply, thanks! active, inactive

For COCCCNC(=O)[C@H]1N2C(=O)c3ccccc3C2SC1(C)C (stereo partly specified) , what call appears in the results of this test? active

Record lookup: outcome of this test for COc1ccc(N2CCC(CNC(=S)Nc3c(C)cccc3C)C2)cc1 (stereo unspecified) ? active

Assay result, entry COc1ccccc1N1CCN(C2C(=O)c3ccccc3N2C(C)=O)CC1 (stereo unspecified) — outcome? inactive

GET /call?item= `COc1ccccc1N1CCN(/N=C\C(Br)=C\c2ccccc2)CC1` returns the recorded outcome of this test. active

What is the recorded call for this compound in the test? COCCCNC(=O)C1CC(=O)N(CCc2ccccc2)C1 (stereo unspecified) inactive

Called result for CC1(C)SC2c3ccccc3C(=O)N2[C@@H]1C(=O)NCc1ccco1 (stereo partly specified) inactive

Which outcome was entered for the compound O=C(CNC(=O)c1ccc(Cl)cc1Cl)OC(C(=O)Nc1cc(C(F)(F)F)ccc1Cl)c1ccccc1 (stereo unspecified) in this test? inactive

# lookup: test call for `COc1ccccc1N1CCN(/N=C/c2ccc(O)cc2O)CC1` inactive

Recorded test call requested for `CCOC(=O)C1(CCOc2ccccc2)CCN(Cc2ccc(C#CCCO)cc2)CC1` inactive

What did the test return for `COc1ccc(OCC(=O)Nc2ccc(N3CCC(C)CC3)cc2)cc1` ? inactive

Name the outcome recorded for `O=C(CSc1nc(=O)n(Cc2cccnc2)c2c1CCC2)Nc1ccc(F)cc1F` in the assay. inactive

---

- targetUnderTest: Lysine-specific demethylase 4A (Homo sapiens)
- assaySummary: qHTS Assay for Inhibitors of JMJD2A-Tudor Domain; further: nearly all actives have a fitted effect of over 50% in size
- experimentalConditions: AlphaScreen JMJD2A-Tudor / H3K4me3 peptide binding; series mostly up to 114 µM
In all, about 390,000 compounds went through this assay and about 17,000 (4.4%) were called active. Roughly 8% stayed inconclusive and do not appear here. Calls come from the whole dose curve; as a rule, active = well fitted inhibition curve with a large enough effect; inconclusive = small, poorly fitted or top-dose-only effect; inactive = no such curve, though single readings can be large or run the other way. The entries come from a sample that favours actives as a whole.
Your reply should match one of these outcome classes. active, inactive

Please state the recorded outcome for this compound: COc1ccc(C2Nc3ccccc3C(=O)N2Cc2ccccc2)cc1Cn1nnc2ccccc21 (centres undefined) inactive

Could you check what this test reported for `COc1ccc(C(=O)N(Cc2ccccc2)Cc2ccc(OC)c(COc3ccc(NC(C)=O)cc3)c2)c(O)c1` ? inactive

Which outcome was assigned to COc1ccc(C2Nc3ccccc3C(=O)N2c2ccc(F)cc2)cc1Cn1nnc2ccccc21 (centres undefined) in this test? inactive

What did the test return for COc1ccc(C2Nc3ccccc3C(=O)N2Cc2ccco2)cc1COc1cccc(NC(C)=O)c1 (centres undefined) ? active

Hey, what did the test say about `COc1cc(C2C3=C(CCCC3=O)OC3=C2C(=O)CCC3)ccc1OCC(=O)Nc1ccccc1` ? inactive

Which outcome was entered for the compound COc1ccc(C2Nc3ccccc3C(=O)N2Cc2ccc(CNC(=O)CO)cc2)cc1COc1ccc(NC(C)=O)cc1 (centres undefined) in this test? active

Which outcome was assigned to CCOC(=O)NN1C(=O)c2ccccc2NC1c1cccc(O)c1 (centres undefined) in this test? inactive

GET /call?item= COc1ccc(C2Nc3ccc(NC(=O)COC(C)=O)cc3C(=O)N2Cc2ccccc2)cc1COc1ccc(NC(C)=O)cc1 (centres undefined) returns the recorded outcome of this test. active

// outcome(item) with item = `COc1ccc(Cn2c(=S)[nH]c3cc(C(=O)NCCCN4CCOCC4)ccc3c2=O)cc1` inactive

---

- targetUnderTest: Lysine-specific demethylase 4A (Homo sapiens) (UniProt O75164)
- assaySummary: qHTS Assay for Inhibitors of JMJD2A-Tudor Domain; further: nearly all actives have a fitted effect of over 50% in size
- experimentalConditions: AlphaScreen JMJD2A-Tudor / H3K4me3 peptide binding; series mostly up to 114 µM
Screen size: about 390,000 compounds; about 17,000 (4.4%) were called active. Roughly 8% stayed inconclusive and do not appear here. Calls come from the whole dose curve; as a rule, active = well fitted inhibition curve with a large enough effect; inconclusive = small, poorly fitted or top-dose-only effect; inactive = no such curve, though single readings can be large or run the other way. Only a selection was taken, and actives are over-represented in it overall.
The reply should name one outcome from t for active, f for inactive

Just curious, what result did `CCN(c1ncnc2c1cnn2-c1ccc(C)cc1)C1CCCCC1` get here? f

Please let me know the test result on file for `Cc1ccccc1OCc1nc2c3cnn(-c4ccccc4F)c3ncn2n1` . f

Can you look up the reported call for `CCC(=O)Nc1nnc(S(=O)(=O)N(CC(C)C)c2ccccc2)s1` for me? f

Answer briefly: the call reported for `O=C(CSc1ncn[nH]1)Nc1ccnc2ccccc12` in this assay. f

Status in this test for `COc1ccc(C(=O)N2CCC(c3nc4ccccc4o3)CC2)cc1` ? f

For `CCOc1ccc(NC(=O)Cn2c(=O)n(CCCC(=O)NCc3ccc4c(c3)OCO4)c(=O)c3ccccc32)cc1` , which call appears in the assay record? f

Each compound tested received a call. Report the one for `Cc1ccccc1OCC(=O)Nc1nnc(S(=O)(=O)N2CCCC2)s1` . f

Record request — test call for `CCN(CC)S(=O)(=O)c1nnc(NC(=O)COc2ccccc2Cl)s1` t

Could you kindly confirm the outcome this assay logged for `Cc1cn(C)c(CC(=O)NCc2ccc(Cl)cc2)c1C(=O)O` ? f

How did this test come out for `Cc1ccc2[nH]cc(CCNC(=O)C3CCCCC3)c2c1` ? f

Assay result, entry `CCOc1ccccc1NC(=O)Cn1c2ncccc2c(=O)n1-c1ccc(C)c(C)c1` — outcome? f

---

- targetUnderTest: Lysine-specific demethylase 4A (Homo sapiens) (UniProt O75164)
- assaySummary: qHTS Assay for Inhibitors of JMJD2A-Tudor Domain; further: nearly all actives have a fitted effect of over 50% in size
- experimentalConditions: AlphaScreen JMJD2A-Tudor / H3K4me3 peptide binding; series mostly up to 114 µM
- From the text: JMJD2A is a jumonji-domain-containing lysine demethylase that uses Fe(II) together with 2-OG to effect oxidative demethylation of histones. Methylation is one of many […] modification that affect epigenetic transcription. […] A quantitative high throughput AlphaScreen has been developed to identify small molecule inhibitors based on a protocol published by NCGC and SGC [4]. […] [2] Yasgar, et al. Compound Management for Quantitative High-Throughput Screening. […]
About 17,000 (4.4%) of roughly 390,000 compounds were called active. Another 8% or so got no clear call; they are omitted. Calls follow the shape of the dose curve; as a rule, active = well fitted inhibition curve with a large enough effect; inconclusive = small, poorly fitted or top-dose-only effect; inactive = no such curve, though single readings can be large or run the other way. The entries come from a sample that favours actives as a whole.
Answer with one of the outcomes given here: active, inactive

Returns: the outcome recorded for `O=C(Nc1ccccc1)Oc1cccc2cccnc12` in this assay. active

For `CN(C)[C@@H]1C(=O)C(C(N)=O)=C(O)[C@@]2(O)C(=O)C3=C(O)c4c(O)ccc(Cl)c4[C@@H](O)[C@H]3C[C@@H]12` , which call appears in the assay record? active

Answer briefly: the call reported for CC1CC(C)CN(C/C=C/c2ccccc2[N+](=O)[O-])C1 (stereo unspecified) in this assay. inactive

I'd appreciate the recorded outcome for COc1ccccc1CNC(=O)c1ccc(CS(=O)c2ccccc2Cl)o1 (stereo unspecified) from this test. inactive

Which outcome was entered for the molecule `O=S(=O)(N/N=C\c1cccn1-c1ccccc1)c1ccc2ccccc2c1` in this test? active

How was `COc1ccc(-c2ccc(=O)n(CC(=O)Nc3ccc(Br)cc3F)n2)cc1` classified in this test? inactive

Assay result, entry S=C(NNC(=S)NC1CC2C=CC1C2)NC1CC2C=CC1C2 (stereo unspecified) — outcome? active

Hello, I am checking results. What call was entered for `CCOc1ccc(-c2cc3nc(C4CCN(C(=O)OC(C)(C)C)CC4)c(C(=O)Nc4ccc(C(=O)OC)cc4)cn3n2)cc1` ? inactive

Dear all, I need the recorded test outcome for `CCCSc1ncc(Cl)c(C(=O)Nc2sc3c(c2C(=O)NCCOC)CCCC3)n1` , thank you. inactive

Each molecule tested received a call. Report the one for CC(C)c1ccc(NC(=S)NC2CC3C=CC2C3)cc1 (stereo unspecified) . inactive

Recorded test call requested for `O=C(Nc1cccc2cccnc12)C(F)(F)F` inactive

Per the records of this test, what outcome belongs to COc1ccc(NC(=O)C2C3C=CC(C3)C2C(=O)NCc2ccccn2)c(OC)c1 (stereo unspecified) ? active

State the result this test recorded for `COc1cccc(CNC(=O)c2ccc3c(c2)N(Cc2ccc(C(F)(F)F)cc2)C(=O)c2ccccc2S3)c1OC` . inactive

# fetch the recorded call for CCS(=O)(=O)N1Cc2ccccc2CC1C(=O)Nc1ccc(OC)cc1OC (stereo unspecified) here inactive

Please indicate how the test categorized `Cc1nc(SCC(=O)N2CCN(c3ccccc3)CC2)[nH]c(=O)c1C` . inactive

Kindly provide the recorded test outcome for the following molecule: `O=C(Cn1c(=O)n(-c2ccc(F)cc2)c(=O)c2sccc21)Nc1cccc(C(F)(F)F)c1` inactive

Fill in: this test's call for `O=C1C[C@@H](c2ccc3ccccc3c2)N1S(=O)(=O)c1ccccc1[N+](=O)[O-]` is ___ inactive

What was the test verdict on `Cc1ccccc1NC(=O)Cn1c(=O)n(CCCCC(=O)NCc2ccccc2Cl)c(=O)c2ccccc21` ? inactive

Which outcome did this test record for the molecule `COc1ccc(C(=O)COC(=O)CCCC(=O)Nc2cc(C(F)(F)F)ccc2Cl)cc1` ? inactive

Entry `OCc1ccc(OCCCOc2cccc3cccnc23)cc1` : call = ? inactive

Please let me know the test result on file for `CCc1cccc(CC)c1NC(=O)Cn1c(=O)c(-c2cc(C)ccc2NC(C)=O)nc2ccccc21` . inactive
